# System: HCC-2998 colon
# measurement_description: NCI-60 one-dose screen, 48 h (100 = growth as untreated, 0 = no growth, -100 = all killed)
# condition_summary: 10 µM unless noted
Compounds without any hit were thinned out: in the full panel of roughly 83,000, 20% have a hit. Activity calls are given as the source filed them. How the source made its calls: active means growth percent below 10; inactive means the rest.
Listing of recorded growth by entry.

Sample answers from the record:
>  <cpd_smiles>
O=C(O)CCCN1C(=O)/C(=C/C(Cl)=C/c2ccccc2)SC1=S

>  <endpoint_value>
5.79% (active)

$$$$
>  <cpd_smiles>
CCOC(=O)/C=C1\S/C(=N\Nc2cc(=O)[nH]c3ccc(Cl)cc23)N(c2ccccc2)C1=O

>  <endpoint_value>
105% (inactive)

$$$$

Fill blank: measured growth of the compound CC(C)=CCC[C@](C)(O)[C@H]1CC[C@]2(C)[C@@H]1CC[C@@H]1[C@@]3(C)Cc4nccnc4C(C)(C)[C@@H]3CC[C@]12C is ____.
79.4% (inactive)

For N#Cc1cccc(NC(=O)c2oc3ccccc3c2-c2cnn(-c3ccccc3)c2)c1 then?
71.1% [50 µM] (inactive)

For C=C(C)[C@@H]1CC[C@]2(C(=O)NCC#CCN3CCN(C)CC3)CC[C@]3(C)[C@H](CC[C@@H]4[C@@](C)(CCC#N)[C@H](C(=C)C)CC[C@]43C)[C@@H]12 then?
25.2% (inactive)

For COC(=O)c1n[nH]c2ccc3nc(-c4cn[nH]c4C(F)(F)F)c4c(c3c12)CCCC4 then?
15.7% (inactive)

For Cn1c(-c2ccc(Br)cc2)c(O)c(=O)c2c(F)cccc21 then?
64.5% (inactive)

For CCN(c1ccc(Cl)cc1)c1nc(-c2ccc([N+](=O)[O-])cc2)cs1 then?
98.7% (inactive)
